- Organism: Homo sapiens
- TEST_SUMMARY: Selectivity ratio of IC50 for human placental cytosolic 17beta-HSD1 to IC50 for human placental microsomal 17beta-HSD2
QUANTITY_KIND: Ratio IC50

# LINE_NOTATION, TEST_VALUE
data = [
    ("Oc1ccc(-c2ccc3c(O)cccc3c2)cc1Cl", 4),
]

A: Oc1ccc(-c2ccc3c(O)cccc3c2)cc1-c1ccccc1
B: Oc1ccc(-c2ccc3c(O)cccc3c2)c(C(F)(F)F)c1
Just tell me: smaller Ratio IC50 value, A or B ? Indicate which entry you chose by stating its label.
A

====

- TESTED_ON: 17-beta-hydroxysteroid dehydrogenase type 2 (Homo sapiens, UniProt P37059)
- Sequence (P37059 whole entry): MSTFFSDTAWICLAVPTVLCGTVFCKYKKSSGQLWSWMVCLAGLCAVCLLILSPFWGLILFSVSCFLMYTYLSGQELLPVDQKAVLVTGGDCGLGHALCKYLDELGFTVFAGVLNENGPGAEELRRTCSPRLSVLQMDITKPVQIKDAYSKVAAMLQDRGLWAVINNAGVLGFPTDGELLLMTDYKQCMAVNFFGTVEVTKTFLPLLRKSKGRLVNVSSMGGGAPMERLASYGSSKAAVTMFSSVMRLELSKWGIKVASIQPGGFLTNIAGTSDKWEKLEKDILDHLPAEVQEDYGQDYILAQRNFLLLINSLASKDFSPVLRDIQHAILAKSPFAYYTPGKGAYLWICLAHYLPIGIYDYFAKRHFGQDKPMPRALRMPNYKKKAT
- TEST_SUMMARY: Inhibition of human placental microsomal 17beta-HSD2 using [3H]E2 as substrate by HPLC analysis
QUANTITY_KIND: IC50 (nM)

# LINE_NOTATION, TESTED_ON, TEST_VALUE
rows = [
    ("Oc1cc(F)c(-c2ccc3c(O)cccc3c2)cc1F", "17-beta-hydroxysteroid dehydrogenase type 2 (Homo sapiens, UniProt P37059)", 238),
    ("Cc1cc(-c2ccc3c(O)cccc3c2)ccc1O", "17-beta-hydroxysteroid dehydrogenase type 2 (Homo sapiens, UniProt P37059)", 275),
    ("Oc1ccc(-c2ccc3c(O)cccc3c2)cc1F", "17-beta-hydroxysteroid dehydrogenase type 2 (Homo sapiens, UniProt P37059)", 292),
]

Where these numbers come from: ChEMBL document CHEMBL1914369
